Molecular target: human serotonin 5HT2A receptor (Homo sapiens)
Sequence (P28223 whole entry): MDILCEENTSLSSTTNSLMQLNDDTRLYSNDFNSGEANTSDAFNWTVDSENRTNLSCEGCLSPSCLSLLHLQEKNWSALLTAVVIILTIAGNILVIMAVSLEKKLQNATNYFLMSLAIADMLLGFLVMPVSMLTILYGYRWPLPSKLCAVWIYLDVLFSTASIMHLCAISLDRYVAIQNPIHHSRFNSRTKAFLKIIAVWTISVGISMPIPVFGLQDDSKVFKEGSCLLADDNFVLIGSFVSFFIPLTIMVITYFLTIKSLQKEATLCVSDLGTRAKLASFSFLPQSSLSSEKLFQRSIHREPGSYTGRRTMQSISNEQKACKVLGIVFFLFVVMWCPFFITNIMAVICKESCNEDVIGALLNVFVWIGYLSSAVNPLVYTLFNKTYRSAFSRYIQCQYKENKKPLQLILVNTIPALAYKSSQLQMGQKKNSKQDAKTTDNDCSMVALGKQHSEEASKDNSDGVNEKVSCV
Experiment: 5HT2A receptor radioligand displacement assay
Details: displacement of [3H]-ketanserin or [3H]-LSD, 5HT2A membrane from HEK293
reported.property: Displacement activity relative to psilocin

INSERT INTO results (compound, value_measured) VALUES
  ('CCOCOc1cccc2[nH]cc(CCN(C)C)c12 [drawing 96]', '+++'),
  ('COC(C)n1cc(CCN(C)C)c2c(O)cccc21 (centres unmarked) [drawing 98]', '+'),
  ('COCCOCn1cc(CCN(C)C)c2c(OCOC)cccc21 [drawing 99]', '+'),
  ('CN(C)CCc1c[nH]c2cccc(O)c12 [Psilocin, 4-hydroxy-N,N-dimethyltryptamine]', '++'),
  ('COC(C)Oc1cccc2[nH]cc(CCN(C)C)c12 (centres unmarked) [drawing 97]', '++');

----------
Test: Compound stability, IP-One incubation
Type: in vitro ADME
Details: IP-One stimulation medium on CHO-K1 cells expressing 5-HT2A, 2 μM, 60 min vs T0, 37° C.
Protocol: IP-One incubation. […] The percent of test compound remaining is calculated using the ratio of the peak areas of intact test compound at 60 min. over T0. The percent of psilocin release is calculated by comparing the peak area of psilocin at 60 min. […] Results are summarized in Table 1, (rel to % parent detected; and/or % psilocin detected).
Known % parent compound of a selection of compounds
reported.property: % parent compound (%)

INSERT INTO measurements (compound, units_label, value_measured) VALUES
  ('COC(C)n1cc(CCN(C)C)c2c(O)cccc21 (centres unmarked) [drawing 88]', '%', 82.5),
  ('COCCOCn1cc(CCN(C)C)c2c(OCOC)cccc21 [drawing 89]', '%', 94.7),
  ('COC(C)Oc1cccc2[nH]cc(CCN(C)C)c12 (centres unmarked) [drawing 87]', '%', 88.8),
  ('CN(C)CCc1c[nH]c2cccc(O)c12 [Psilocin, 4-hydroxy-N,N-dimethyltryptamine]', '%', 87.4),
  ('CCOCOc1cccc2[nH]cc(CCN(C)C)c12 [drawing 86]', '%', 91.9);

----------
Assay: Single-dose oral pharmacokinetics in mice (plasma and brain)
Type: in vivo, C57BL6 mice
Details: male, C57BL6, mouse, PO 3.0 mg/kg, plasma, parent compound, read-out: Parent PK Cmax
reported.property: Cmax (ng/mL)

INSERT INTO measurements (compound, value_measured) VALUES
  ('COC(C)Oc1cccc2[nH]cc(CCN(C)C)c12 (stereo not shown)', 21.6);
